# Test system: PC-3 prostate
# procedure-details: NCI tumour cell line growth inhibition, 48 h
TGI: recorded values

1. N#Cc1c2c(c(Nc3ccc(F)cc3)n3c1nc1ccccc13)CCCC2 = > 100 µM
2. CC(NC(=O)OC(C)(C)C)C(=O)NC(Cc1ccccc1)C(=O)NCC(=O)ON=C1CCCC1 (stereo not given) = > 100 µM
3. O=C(CC(=O)N1N=C(N2c3ccccc3Sc3ccccc32)CC1c1ccccc1)Nc1ccccc1Cl (stereo not given) = > 100 µM
4. COc1cc(C2S/C(=C/c3ccccc3)C(=O)N2c2cccc(Cl)c2)cc(OC)c1OC (stereo not given) = > 100 µM
5. CC(C)/C=N\N1C(N)=C(C#N)C(C#N)(C#N)C1C(C)C (stereo not given) = > 100 µM
6. CCNCC(O)COc1ccc2c(c1)[n+]([O-])nc(N)[n+]2[O-] (stereo not given) = > 100 µM

Tested on PC-3 prostate, the item `Cc1nn(-c2ccccc2)c2nc3c(c(C)nn3-c3ccccc3)c(-c3ccc(C(F)(F)F)cc3)c12` showed TGI equal to > 100 µM

Item COc1ccc(C2SC(N)=Nc3c2c(C)nn3C(=O)c2ccccc2O)cc1 (stereo not given) was tested on PC-3 prostate; the reported TGI is > 10 µM

Tested system PC-3 prostate; TGI recorded for C[C@]12CCC3c4ccc(O)cc4CC[C@H]3C1CC(=O)NC2=O (stereo not given in full) was > 10 µM

Per the reported PC-3 prostate data, NC(Cc1ccc(O)c(O)c1)P(=O)(O)O (stereo not given) has TGI of > 100 µM

Hey, PC-3 prostate data for `COc1ccc2cc(C(=O)CCC(=O)O)ccc2c1` : TGI came out at > 100 µM
